# Assay Notes: Toxicity in Swiss mouse
# Type: organism-based
# Measurement Setup: in vivo
Assay Endpoint: LD50 (mg/kg)
The figure you give is taken to be in mg/kg; do not add the unit.

stdin: What measured LD50 goes with `C[C@@H]1[C@H](OCc2ccc(C(=O)O)cc2)O[C@@H]2O[C@@]3(C)CC[C@@H]4[C@@H](C)CC[C@@H]1[C@]24OO3` ?
stdout: 1000

From: ChEMBL document CHEMBL1149735
